- TARGET_OR_SYSTEM: human TrkB on CHO cells (CHO-K1-hTrkB/pSRE-Luc) (human) (UniProt Q16620)
- Sequence (Q16620 32-822): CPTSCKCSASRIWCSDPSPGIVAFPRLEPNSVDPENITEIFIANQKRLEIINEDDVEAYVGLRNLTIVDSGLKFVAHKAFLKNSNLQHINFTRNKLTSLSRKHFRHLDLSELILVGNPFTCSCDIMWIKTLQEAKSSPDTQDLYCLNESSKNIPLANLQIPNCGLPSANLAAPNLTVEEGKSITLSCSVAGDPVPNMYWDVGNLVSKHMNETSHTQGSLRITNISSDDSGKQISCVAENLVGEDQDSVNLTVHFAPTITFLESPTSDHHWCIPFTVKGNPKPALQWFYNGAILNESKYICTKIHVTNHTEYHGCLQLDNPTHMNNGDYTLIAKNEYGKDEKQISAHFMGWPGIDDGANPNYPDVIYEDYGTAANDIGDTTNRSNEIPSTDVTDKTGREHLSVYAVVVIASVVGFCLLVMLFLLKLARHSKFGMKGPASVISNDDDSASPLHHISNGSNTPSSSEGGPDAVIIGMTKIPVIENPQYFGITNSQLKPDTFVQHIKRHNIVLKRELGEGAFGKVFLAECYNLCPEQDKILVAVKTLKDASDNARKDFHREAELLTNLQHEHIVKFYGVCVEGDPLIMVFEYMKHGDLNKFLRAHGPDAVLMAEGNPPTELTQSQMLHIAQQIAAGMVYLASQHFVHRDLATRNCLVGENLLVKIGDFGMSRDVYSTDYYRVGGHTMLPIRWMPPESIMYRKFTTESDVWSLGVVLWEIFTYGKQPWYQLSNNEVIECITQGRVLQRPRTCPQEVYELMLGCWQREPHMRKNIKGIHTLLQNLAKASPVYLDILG
- TEST: cell-based or functional assay
MEASURED_METRIC: BDNF activity in TrkBluciferase assay, EC50 [nM] (nM)
Answer format: numeric, nM implied, no suffix.

I am curious: what BDNF activity in TrkBluciferase assay, EC50 [nM] value has been reported for pre-pro-BDNF(-RGR)-opsin(S)-His6 (ligand) APMKEANIRGQGGLAYPGVRTHGTLESVNGPKAGSRGLTSLADTFEHVIEELLDEDQKVRPNEENNKDADLYTSRVMLSSQVPLEPPLLFLLEEYKNYLDAANMSMRVRRHSDPARRGELSVCDSISEWVTAADKKTAVDMSGGTVTVLEKVPVSKGQLKQYFYETKCNPMGYTKEGCRGIDKRHWNSQCRTTQSYVRALTMDSKKRIGWRFIRIDTSCVCTLTIKGSGNGTEGPNFYVPFSNATGSGHHHHHH ?
0.3

Any idea what BDNF activity in TrkBluciferase assay, EC50 [nM] was measured for pre-pro-BDNF, RGR deleted, GSG, C-terminal His6, R54A, IgA protease cleavage site (row 2 of Table 9) (ligand) APMKEANIRGQGGLAYPGVRTHGTLESVNGPKAGSAGLTSLADTFEHVIEELLDEDQKVRPNEENNKDADLYTSRVMLSSQVPLEPPLLFLLEEYKNYLDAANMSMGSVVAPPAPHSDPARRGELSVCDSISEWVTAADKKTAVDMSGGTVTVLEKVPVSKGQLKQYFYETKCNPMGYTKEGCRGIDKRHWNSQCRTTQSYVRALTMDSKKRIGWRFIRIDTSCVCTLTIKGSGHHHHHH ?
9.6

Please report the recorded BDNF activity in TrkBluciferase assay, EC50 [nM] for pre-pro(His6-R54A-IgA)-BDNF(-RGR) (ligand) MTILFLTMVISYFGCMKAAPMKEANIHHHHHHAPMKEANIRGQGGLAYPGVRTHGTLESVNGPKAGSAGLTSLADTFEHVIEELLDEDQKVRPNEENNKDADLYTSRVMLSSQVPLEPPLLFLLEEYKNYLDAANMSMGSVVAPPAPHSDPARRGELSVCDSISEWVTAADKKTAVDMSGGTVTVLEKVPVSKGQLKQYFYETKCNPMGYTKEGCRGIDKRHWNSQCRTTQSYVRALTMDSKKRIGWRFIRIDTSCVCTLTIK .
9.6

Fill in: BDNF activity in TrkBluciferase assay, EC50 [nM] of pre-pro(IgA)-BDNF(-RGR)-His6 (ligand) MTILFLTMVISYFGCMKAAPMKEANIRGQGGLAYPGVRTHGTLESVNGPKAGSRGLTSLADTFEHVIEELLDEDQKVRPNEENNKDADLYTSRVMLSSQVPLEPPLLFLLEEYKNYLDAANMSMGSVVAPPAPHSDPARRGELSVCDSISEWVTAADKKTAVDMSGGTVTVLEKVPVSKGQLKQYFYETKCNPMGYTKEGCRGIDKRHWNSQCRTTQSYVRALTMDSKKRIGWRFIRIDTSCVCTLTIKGSGHHHHHH is ___
9.6

Recorded BDNF activity in TrkBluciferase assay, EC50 [nM] of pre-pro-BDNF(-RGR; Q79S)-T7-His6 (ligand) APMKEANIRGQGGLAYPGVRTHGTLESVNGPKAGSRGLTSLADTFEHVIEELLDEDQKVRPNEENNKDADLYTSRVMLSSQVPLEPPLLFLLEEYKNYLDAANMSMRVRRHSDPARRGELSVCDSISEWVTAADKKTAVDMSGGTVTVLEKVPVSKGQLKQYFYETKCNPMGYTKEGCRGIDKRHWNSSCRTTQSYVRALTMDSKKRIGWRFIRIDTSCVCTLTIKGSGMASMTGGQQMGHHHHHH , please.
6.9

Source of measurements: patent US20190271021A1
